Cited source for all entries: patent US8106197B2

Quick list: inhibition at 1 µM per entry.
Target: HGFR (Homo sapiens, UniProt P08581)
Construct: purchased Upstate 14-526
Sequence (P08581 974-1390 limits assumed): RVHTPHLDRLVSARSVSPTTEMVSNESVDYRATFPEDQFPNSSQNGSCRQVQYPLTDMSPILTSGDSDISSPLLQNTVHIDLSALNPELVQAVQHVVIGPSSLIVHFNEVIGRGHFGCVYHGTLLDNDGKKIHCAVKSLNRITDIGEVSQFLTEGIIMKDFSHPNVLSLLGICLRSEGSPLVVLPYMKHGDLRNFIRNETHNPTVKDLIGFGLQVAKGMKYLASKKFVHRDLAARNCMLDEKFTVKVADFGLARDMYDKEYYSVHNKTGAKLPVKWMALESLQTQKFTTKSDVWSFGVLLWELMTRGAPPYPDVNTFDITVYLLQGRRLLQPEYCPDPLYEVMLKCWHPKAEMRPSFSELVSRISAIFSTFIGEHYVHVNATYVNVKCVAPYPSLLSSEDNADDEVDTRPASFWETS
Assay: HGFR continuous-coupled spectrophotometric assay
Type: biochemical
Conditions: Table 6; percent c-MET inhibition at 1 μM; read-out: % inhibition
MEASUREMENT LABEL: inhibition at 1 µM (%)

>>> observed_value("COCC1CN(CC(N)=O)CCN(C(=O)c2cnc(N)c(OCc3c(Cl)cccc3Cl)c2)C1 (stereo not drawn)")
23
>>> observed_value("Nc1ncc(C(=O)N2CCC3(CC2)COC(CCc2cc(O)n[nH]2)C3)cc1OCc1c(Cl)cccc1Cl (stereo not drawn)")
34
>>> observed_value("Nc1ncc(C(=O)N2CCC3(CC2)CC3C(=O)NCC2CC2)cc1OCc1c(Cl)cccc1Cl (stereo not drawn)")
32
>>> observed_value("Nc1ncc(C(=O)N2CCC(COCc3ccccc3F)CC2)cc1OCc1c(Cl)cccc1Cl")
10
>>> observed_value("Nc1ncc(C(=O)N2CCC(Cc3cccc(CO)c3)CC2)cc1OCc1c(Cl)cccc1Cl")
11
>>> observed_value("Nc1ncc(C(=O)NCc2ccc(F)cc2)cc1OCc1c(Cl)cccc1Cl")
32
>>> observed_value("Nc1ncc(C(=O)N2CCC(O)(Cc3ccccc3)CC2)cc1OCc1c(Cl)cccc1Cl")
62
>>> observed_value("Nc1ncc(C(=O)NCCCN2CCCC2=O)cc1OCc1c(Cl)cccc1Cl")
34
>>> observed_value("Nc1ncc(C(=O)NCc2ccc(S(N)(=O)=O)cc2)cc1OCc1c(Cl)cccc1Cl")
30
>>> observed_value("Nc1ncc(C(=O)NCc2cn3cc(Cl)ccc3n2)cc1OCc1c(Cl)cccc1Cl")
38
>>> observed_value("Nc1ncc(C(=O)N2CCC3(CC2)CC3C(=O)N2CCCCC2)cc1OCc1c(Cl)cccc1Cl (stereo not drawn)")
26
>>> observed_value("Nc1ncc(C(=O)NCc2ccc(OC(F)(F)F)cc2)cc1OCc1c(Cl)cccc1Cl")
24
>>> observed_value("COCCNC(=O)C1CCCN(C(=O)c2cnc(N)c(OCc3c(Cl)cccc3Cl)c2)C1 (stereo not drawn)")
20
>>> observed_value("CC(CN(C)C)NC(=O)c1cnc(N)c(OCc2c(Cl)cccc2Cl)c1 (stereo not drawn)")
45
>>> observed_value("Nc1ncc(C(=O)N2CCCC(N3CCC(CO)CC3)CC2)cc1OCc1c(Cl)cccc1Cl (stereo not drawn)")
20
>>> observed_value("Nc1ncc(C(=O)NC2CCCNC2=O)cc1OCc1c(Cl)cccc1Cl (stereo not drawn)")
16
>>> observed_value("Nc1ncc(C(=O)NCC(O)CN2CCC(Cc3ccccc3)CC2)cc1OCc1c(Cl)cccc1Cl (stereo not drawn)")
32
>>> observed_value("N#CCCN1CCN(C(=O)c2cnc(N)c(OCc3c(Cl)cccc3Cl)c2)CC1")
19
>>> observed_value("Nc1ncc(C(=O)NCCc2ccc(S(N)(=O)=O)cc2)cc1OCc1c(Cl)cccc1Cl")
30
>>> observed_value("Nc1ncc(C(=O)N2CCc3nnc(CCN4CCOCC4)n3CC2)cc1OCc1c(Cl)cccc1Cl")
27
>>> observed_value("Nc1ncc(C(=O)NCCOc2ccccc2)cc1OCc1c(Cl)cccc1Cl")
66
>>> observed_value("Nc1ncc(C(=O)N2CCCC2c2ccncc2)cc1OCc1c(Cl)cccc1Cl (stereo not drawn)")
19
>>> observed_value("Nc1ncc(C(=O)NCc2ccccc2OC(F)(F)F)cc1OCc1c(Cl)cccc1Cl")
31
>>> observed_value("Nc1ncc(C(=O)NC(CO)c2cccnc2)cc1OCc1c(Cl)cccc1Cl (stereo not drawn)")
22
>>> observed_value("CC(C)CCNC(=O)C1CC12CCN(C(=O)c1cnc(N)c(OCc3c(Cl)cccc3Cl)c1)CC2 (stereo not drawn)")
21
>>> observed_value("Cc1cc2cc(CNC(=O)c3cnc(N)c(OCc4c(Cl)cccc4Cl)c3)ccc2[nH]1")
20
>>> observed_value("Nc1ncc(C(=O)N2CCN(c3ccccn3)CC2)cc1OCc1c(Cl)cccc1Cl")
34
>>> observed_value("Nc1ncc(C(=O)N2CCC(O)(CCc3ccncc3)CC2)cc1OCc1c(Cl)cccc1Cl")
25
>>> observed_value("Nc1ncc(C(=O)NCc2noc(C(=O)N3CC[C@H](O)C3)n2)cc1OCc1c(Cl)cccc1Cl")
26
>>> observed_value("CCCN(CCO)C1CCCN(C(=O)c2cnc(N)c(OCc3c(Cl)cccc3Cl)c2)CC1 (stereo not drawn)")
17
>>> observed_value("Nc1ncc(C(=O)N2CCC3(CCNC3=O)CC2)cc1OCc1c(Cl)cccc1Cl")
27
>>> observed_value("Cc1ccc(F)c(CNC(=O)c2cnc(N)c(OCc3c(Cl)cccc3Cl)c2)c1F")
31
>>> observed_value("Nc1ncc(C(=O)NCc2ncccc2O)cc1OCc1c(Cl)cccc1Cl")
24
>>> observed_value("NC(=O)CCNC(=O)c1cnc(N)c(OCc2c(Cl)cccc2Cl)c1")
28
>>> observed_value("Nc1ncc(C(=O)NCCCN2CCOCC2)cc1OCc1c(Cl)cccc1Cl")
26
>>> observed_value("CN(CCC(O)c1ccccc1)C(=O)c1cnc(N)c(OCc2c(Cl)cccc2Cl)c1 (stereo not drawn)")
28
>>> observed_value("Nc1ncc(C(=O)N2CCC(CO)CC2)cc1OCc1c(Cl)cccc1Cl")
43
>>> observed_value("C[C@@H]1CN(C(=O)c2cnc(N)c(OCc3c(Cl)cccc3Cl)c2)C[C@H](C)O1")
32
>>> observed_value("Nc1ncc(C(=O)NC[C@H]2CC[C@H](c3nc4ccccc4[nH]3)CC2)cc1OCc1c(Cl)cccc1Cl")
38

====

Quick list: inhibition at 1 µM per entry.
Target: HGFR (Homo sapiens)
Construct: purchased Upstate 14-526
Assay: HGFR continuous-coupled spectrophotometric assay
Assay type: biochemical
Details: Table 6; percent c-MET inhibition at 1 μM; read-out: % inhibition
MEASUREMENT LABEL: inhibition at 1 µM (%)

>>> observed_value("NC(=O)C1CCCN(C(=O)c2cnc(N)c(OCc3c(Cl)cccc3Cl)c2)C1 (centres unmarked)")
39
>>> observed_value("Nc1ncc(C(=O)N2CCC3(CC2)CC(CCc2ccnnc2)CO3)cc1OCc1c(Cl)cccc1Cl (centres unmarked)")
37
>>> observed_value("Nc1ncc(C(=O)N2CCC(O)(CN3CCCC3=O)C2)cc1OCc1c(Cl)cccc1Cl (centres unmarked)")
20
>>> observed_value("CN(C)C1CCN(C(=O)c2cnc(N)c(OCc3c(Cl)cccc3Cl)c2)C1 (centres unmarked)")
33
>>> observed_value("Nc1ncc(C(=O)NCc2c(F)cccc2C(F)(F)F)cc1OCc1c(Cl)cccc1Cl")
33
>>> observed_value("CC(C)(O)c1ccc(CNC(=O)c2cnc(N)c(OCc3c(Cl)cccc3Cl)c2)cc1")
24
>>> observed_value("CN1CCC(N(C)C(=O)c2cnc(N)c(OCc3c(Cl)cccc3Cl)c2)C1 (centres unmarked)")
33
>>> observed_value("Nc1ncc(C(=O)NCc2cc3cc[nH]c3cn2)cc1OCc1c(Cl)cccc1Cl")
28
>>> observed_value("CCc1ccc(COCC2CCN(C(=O)c3cnc(N)c(OCc4c(Cl)cccc4Cl)c3)CC2)nc1")
41
>>> observed_value("Nc1ncc(C(=O)NCCO)cc1OCc1c(Cl)cccc1Cl")
34
>>> observed_value("CS(=O)(=O)CCN1CCN(C(=O)c2cnc(N)c(OCc3c(Cl)cccc3Cl)c2)CC1")
25
>>> observed_value("CS(=O)(=O)C1CCN(C(=O)c2cnc(N)c(OCc3c(Cl)cccc3Cl)c2)C1 (centres unmarked)")
23
>>> observed_value("Nc1ncc(C(=O)NCc2cccc(OC(F)F)c2)cc1OCc1c(Cl)cccc1Cl")
32
>>> observed_value("COc1ccc(CNC(=O)c2cnc(N)c(OCc3c(Cl)cccc3Cl)c2)c(OC)c1")
59
>>> observed_value("Nc1ncc(C(=O)NCC2=CSC3=NCCN23)cc1OCc1c(Cl)cccc1Cl")
99
>>> observed_value("Nc1ncc(C(=O)NCc2ccc(F)cc2F)cc1OCc1c(Cl)cccc1Cl")
33
>>> observed_value("Nc1ncc(C(=O)NC(CO)Cc2ccc(Cl)cc2)cc1OCc1c(Cl)cccc1Cl (centres unmarked)")
27
>>> observed_value("Cn1ccnc1SCC1(O)CCCN(C(=O)c2cnc(N)c(CCc3c(Cl)cccc3Cl)c2)CC1 (centres unmarked)")
35
>>> observed_value("Nc1ncc(C(=O)NCCc2c[nH]c3ccc(O)cc23)cc1OCc1c(Cl)cccc1Cl")
29
>>> observed_value("Nc1ncc(C(=O)N2CCC(O)C2)cc1OCc1c(Cl)cccc1Cl (centres unmarked)")
83

====

Target: HGFR (Homo sapiens, UniProt P08581)
Construct: purchased Upstate 14-526
Test: HGFR continuous-coupled spectrophotometric assay
Type: biochemical
Settings: Table 6; percent c-MET inhibition at 1 μM; read-out: % inhibition
Recorded inhibition at 1 µM determines the label; the label ranges are range A (below 20%), range B (20% to below 30%), range C (30% or more)

>>> assigned_category("Nc1ncc(C(=O)N2CCC(C(=O)c3ccccc3)CC2)cc1OCc1c(Cl)cccc1Cl")
"range C"
>>> assigned_category("Nc1ncc(C(=O)NCCc2c[nH]c3ccc(Cl)cc23)cc1OCc1c(Cl)cccc1Cl")
"range C"
>>> assigned_category("Nc1ncc(C(=O)NCCc2ccccc2F)cc1OCc1c(Cl)cccc1Cl")
"range C"
>>> assigned_category("CN(CCC1CCC(=O)N1CC(F)(F)F)C(=O)c1cnc(N)c(OCc2c(Cl)cccc2Cl)c1 (centres unmarked)")
"range B"
>>> assigned_category("CN(C)CCNC(=O)c1cnc(N)c(OCc2c(Cl)cccc2Cl)c1")
"range B"
>>> assigned_category("CCCCOc1ccc(CNC(=O)c2cnc(N)c(OCc3c(Cl)cccc3Cl)c2)cc1")
"range A"
>>> assigned_category("Nc1ncc(C(=O)N2CCN(CC(=O)N3CCCC3)CC2)cc1OCc1c(Cl)cccc1Cl")
"range C"
>>> assigned_category("Nc1ncc(C(=O)N2CCN(c3ccc(Br)cn3)CC2)cc1OCc1c(Cl)cccc1Cl")
"range A"
>>> assigned_category("Cc1ccn2cc(CNC(=O)c3cnc(N)c(OCc4c(Cl)cccc4Cl)c3)nc2n1")
"range C"
>>> assigned_category("Nc1ncc(C(=O)N2CCC(Cc3ccc(F)cc3)CC2)cc1OCc1c(Cl)cccc1Cl")
"range C"
